# Test system: Acetylcholinwirkung auf Blase
# ASSAY_OVERVIEW: Inhibition of the acetylcholine effect on bladder
# Type: in vivo, Meerschweinchen
# CONDITION_DETAILS: Cavia porcellus, 5 min; anaesthetised guinea pig, acetylcholine 5 min after test substance, bladder contraction; read-out: -log ED50 Blase (converted)
Lab note: compare ED50 with 0.7 µmol/kg, writing 1 if less and -1 if equal or more.

A selection of reference data follows.
## Task Quick check: does O=C1Nc2ccccc2N(C(=O)N2CCCC(CCN3CCCCC3)C2)c2ncccc21 (stereo not drawn) have ED50 under 0.7 µmol/kg?
## Result 1

## Task Here's an entry: CN(CCC1CCCN(C(=O)N2c3ccccc3C(=O)Nc3cccnc32)C1)C1CCCC1 (stereo not drawn) . Is its ED50 below 0.7 µmol/kg?
## Result -1

## Task Here's an entry: CCN(CC)CC1CCCCN1CC(=O)N1c2ccccc2C(=O)Nc2cccnc21 (stereo not drawn) [X, reference compound] . Is its ED50 below 0.7 µmol/kg?
## Result -1

## Task API: query returns whether the compound falls strictly under 0.7 µmol/kg in ED50. Query: O=C1Nc2cccnc2N(C(=O)N2CCCC(CCCN3CCCCC3)C2)c2ccccc21 (stereo not drawn)
## Result -1

## Task Hello, is ED50 of the following compound strictly smaller than 0.7 µmol/kg? CN1CCN(CC(=O)N2c3ccccc3C(=O)Nc3cccnc32)CC1 [Y, reference compound]
## Result -1

## Task # check: ED50 < 0.7 µmol/kg for O=C1Nc2cccnc2N(C(=O)N2CCCC(CCN3CCCCCC3)C2)c2ccccc21 (stereo not drawn)
## Result 1

Others:
## Task Just wondering, is ED50 of CS(=O)(=O)O.O=C1Nc2cccnc2N(C(=O)N2CCCC(CCN3CCCCC3)C2)c2ccccc21 (stereo not drawn) below 0.7 µmol/kg?
## Result 1

* * *

# TARGET_OR_SYSTEM: muscarinischen Rezeptoren (Herz) (Rattus norvegicus, UniProt P10980)
# Construct: Das Gesamtherz wurde mit einer Schere zerkleinert; Alle Organe wurden abschließend in einem Potter homogenisiert; from tissue; host or cells: rat whole heart homogenate
# Sequence (P10980 1-466): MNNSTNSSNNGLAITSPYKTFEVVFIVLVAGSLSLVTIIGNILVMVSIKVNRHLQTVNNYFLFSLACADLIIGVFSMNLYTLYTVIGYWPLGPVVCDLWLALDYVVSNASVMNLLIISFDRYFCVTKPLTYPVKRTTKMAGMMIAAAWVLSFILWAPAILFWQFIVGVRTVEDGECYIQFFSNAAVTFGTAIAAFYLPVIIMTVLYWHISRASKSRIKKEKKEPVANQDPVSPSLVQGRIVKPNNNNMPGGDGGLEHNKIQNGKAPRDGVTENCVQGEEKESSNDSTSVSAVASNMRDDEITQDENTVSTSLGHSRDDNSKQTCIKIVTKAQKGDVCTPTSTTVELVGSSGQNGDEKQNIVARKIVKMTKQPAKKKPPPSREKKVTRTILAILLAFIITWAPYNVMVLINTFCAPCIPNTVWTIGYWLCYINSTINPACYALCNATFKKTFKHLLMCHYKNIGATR
# ASSAY_OVERVIEW: biochemical
# Type: binding, Ratte
# CONDITION_DETAILS: whole heart homogenate 1:400, 0,3 nmolar 3H-NMS, 30°C, 45 min; read-out: Rezeptor-Bindungs-Tests -log IC50 Herz (converted)
I'd be grateful if you could share measured IC50 for these entries.
Include the unit after the number when you answer.

Batch of 6 molecules: report IC50 for each.
1. CCN(CC)CC1CCCCN1CC(=O)N1c2ccccc2C(=O)Nc2cccnc21 (centres unmarked) [X, reference compound]
2. O=C1Nc2ccccc2N(C(=O)N2CCCC(CCN3CCCCC3)C2)c2ncccc21 (centres unmarked) [G]
3. O=C1Nc2cccnc2N(C(=O)N2CCCC(CCN3CCCC3)C2)c2ccccc21 (centres unmarked) [D]
4. CS(=O)(=O)O.O=C1Nc2cccnc2N(C(=O)N2CCCC(CCN3CCCCC3)C2)c2ccccc21 (centres unmarked) [C]
5. O=C1Nc2cccnc2N(C(=O)N2CCCC(CCCN3CCCCC3)C2)c2ccccc21 (centres unmarked) [A]
6. CN(CCC1CCCN(C(=O)N2c3ccccc3C(=O)Nc3cccnc32)C1)C1CCCC1 (centres unmarked) [E]

## Result
151 nM
3.98 nM
6.03 nM
3.02 nM
2 nM
3.02 nM

Fill in IC50 for each of the 2 molecules listed.
1. O=C1Nc2cccnc2N(C(=O)N2CCCC(CCN3CCCCCC3)C2)c2ccccc21 (centres unmarked) [F]
2. Cl.O=C1Nc2cccnc2N(C(=O)N2CCCC(CCCN3CCCC3)C2)c2ccccc21 (centres unmarked) [B]

## Result
3.02 nM
10 nM

* * *

# Test system: Speichelsekretion
# ASSAY_OVERVIEW: Inhibition of pilocarpine-induced salivation in the rat
# Assay type: in vivo, Ratte
# CONDITION_DETAILS: Rattus norvegicus, iv; dose reducing saliva volume by 50%; pilocarpine 2 mg/kg s.c.; read-out: Speichelsekretionshemmung (Ratte) ED50
# Experimental: Nach Lavy und Mulder (Arch. int. Pharmacodyn. 178, 437-445, (1969)) erhielten mit 1,2 g/kg Urethan narkotisierte männliche THOM-Ratten steigende Dosen der Substanz i.v.. Die Speichelsekretion wurde durch s.c. Gabe von 2 mg/kg Pilocarpin ausgelöst. Der Speichel wurde mit Fließpapier aufgesaugt, die von ihm eingenommene Fläche alle 5 Minuten planimetrisch bestimmt. Die Dosis der Substanz, die das Speichelvolumen um 50% verminderte, wurde graphisch ermittelt. Ergebnisse siehe Tabelle 11.
QUANTITY_KIND: ED50 (mg/kg)
Answers are plain numbers, in mg/kg.

## Task Request the reported ED50 associated with CS(=O)(=O)O.O=C1Nc2cccnc2N(C(=O)N2CCCC(CCN3CCCCC3)C2)c2ccccc21 (stereo not shown)
## Result 0.058

## Task Would you kindly share the measured ED50 for O=C1Nc2ccccc2N(C(=O)N2CCCC(CCN3CCCCC3)C2)c2ncccc21 (stereo not shown) ?
## Result 0.00683

Each molecule below has a recorded value; state its ED50.
1. O=C1Nc2cccnc2N(C(=O)N2CCCC(CCCN3CCCCC3)C2)c2ccccc21 (stereo not shown)
2. CN1CCN(CC(=O)N2c3ccccc3C(=O)Nc3cccnc32)CC1 [Y, reference compound]

## Result
1. 0.035
2. 0.084

* * *

# ASSAY_OVERVIEW: Solubility in water
# Assay type: physicochemical
# CONDITION_DETAILS: water, salt with N-Cyclohexylsulfamidsäure; read-out: Löslichkeit in Wasser
QUANTITY_KIND: solubility

## Task Quick one: solubility of O=C1Nc2cccnc2N(C(=O)N2CCCC(CCCN3CCCCC3)C2)c2ccccc21 (stereo not shown) ?
## Result ~10000 µg/mL
